Biological target: Recombinant human c-Cbl (aa 47-435) (Homo sapiens, UniProt P22681)
Sequence (P22681 47-435): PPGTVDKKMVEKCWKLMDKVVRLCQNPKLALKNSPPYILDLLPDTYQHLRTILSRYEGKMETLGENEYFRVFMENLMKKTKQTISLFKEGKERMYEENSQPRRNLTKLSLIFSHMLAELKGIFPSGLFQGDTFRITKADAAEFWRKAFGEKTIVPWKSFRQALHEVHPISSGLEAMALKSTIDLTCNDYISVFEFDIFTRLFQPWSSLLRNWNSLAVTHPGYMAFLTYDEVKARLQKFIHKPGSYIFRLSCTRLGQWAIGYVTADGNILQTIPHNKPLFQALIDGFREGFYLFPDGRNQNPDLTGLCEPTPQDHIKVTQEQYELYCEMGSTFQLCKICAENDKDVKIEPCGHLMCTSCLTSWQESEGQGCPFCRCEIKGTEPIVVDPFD
Test: c-Cbl Biochemical Assay (TR-FRET)
Settings: hc-Cbl Biochemical Assay (TR-FRET); read-out: TR-FRET hcCbl IC50
pIC50: −log10 of the molar value.
# pIC50 listing for each entry below

Example entries begin here.
CCNc1cc(-c2ccccc2-c2nncn2C)cc(-n2nc3c(C(F)(F)F)cccn3c2=O)n1 = 4.30 to 5.00
Cn1cnnc1-c1cc(F)ccc1-c1cccc(-c2nc3cc(CNC4CCC4)c(F)c(F)c3o2)c1 = 6.00 to 6.70
Cn1cnnc1-c1cc(F)ccc1-c1cccc(-c2nc3cc(N[C@@H]4CCC[C@@H]4O)cc(C(F)(F)F)c3o2)c1 = 5.00 to 6.00

Lab note: next compound to report on.
// Input: "Cn1cnnc1CC1(c2cccc(-c3nc4cc(CN5CC[C@H](O)C5)cc(C(F)(F)F)c4[nH]3)c2)COC1" . Output its pIC50 only.
5.00 to 6.00

// provenance: patent US20250163038A1
